Target: PhzR (Pseudomonas aeruginosa)
Sequence (Q9RMS5 whole entry, the tested form may be a part): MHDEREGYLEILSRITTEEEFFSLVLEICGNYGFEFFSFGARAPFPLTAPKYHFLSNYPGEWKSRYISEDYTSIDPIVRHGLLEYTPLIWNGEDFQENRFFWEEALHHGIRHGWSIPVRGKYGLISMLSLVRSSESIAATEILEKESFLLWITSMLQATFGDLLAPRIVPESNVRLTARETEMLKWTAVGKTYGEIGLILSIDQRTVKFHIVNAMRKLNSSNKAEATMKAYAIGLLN
Assay: Agonist activity at Pseudomonas aeruginosa QscR expressed in Escherichia coli JLD271 harboring QscR expression plasmid pJN105Q and pPA1897-lacZ transcriptional fusion reporter pSC11-Q measured after 35 mins by Miller-type beta-galactosidase reporter gene assay
value type: log10(EC50) (log10 of the value in nM)
Friendly reminder: values = log10 of EC50, unit nM.

Worked cases, answers included:
# compound structure, log10(EC50)
measured = [
    ("CCCCCCCCCC(=O)CC(=O)N[C@H]1CCSC1=O", 1.91),
    ("CCCCCCCCCC(=O)CC(=O)N[C@H]1CCO[C@@H]1O", 3.54),
    ("CCCCCCCCCC(=O)CC(=O)N[C@H]1CCCC1=O", 2.92),
    ("CCCCCCCCCC(=O)CC(=O)N[C@H]1CCOC1", 2.91),
    ("CCCCCCCCCC(=O)CC(=O)NC1CCCC1", 2.56),
]

// query log10(EC50) value for entry CCCCCCCCCCCS(=O)(=O)N[C@H]1CCOC1=O 3.20

// query log10(EC50) value for entry CCCCCCCCCC(=O)CC(=O)N[C@H]1CCNC1=O 3.52
